Just for reference, ChEMBL document CHEMBL4689842 is where these values come from.

tested on: HEK-293T; assay: Multiplex assay against HEK293T; assay type: toxicity, cell-based; details: human, 48 h, 1 µM, compound concentration 1 uM, replicate 1
Catalogue of molecules with associated Population Healthy Nuclei (%)

What measured Population Healthy Nuclei (%) goes with Cc1c[nH]c2nccc(Oc3c(F)cc(Nc4cc(Cl)nc(N)n4)cc3F)c12 ?
34%

I'd like to know its Population Healthy Nuclei (%). The molecule in question is COC(=O)C1=C(C)NC(C)=C(C(=O)OCCCN2CCC(c3ccccc3)(c3ccccc3)CC2)[C@H]1c1cccc([N+](=O)[O-])c1
56%

###

system: HEK-293T; assay: Multiplex assay against HEK293T; type: toxicity, cell-based; conditions: human, 48 h, 10 µM, compound concentration 10 uM, replicate 1
Each entry below carries its recorded Population Mitochondria Different-Phenotype (%).
Numbers only here, please. The scale is %.

• COC(=O)C1=C(C)NC(C)=C(C(=O)OCCCN2CCC(c3ccccc3)(c3ccccc3)CC2)[C@H]1c1cccc([N+](=O)[O-])c1 = 66
• Cc1c[nH]c2nccc(Oc3c(F)cc(Nc4cc(Cl)nc(N)n4)cc3F)c12 = 45
• CC(C)Oc1ccccc1C(=O)Nc1ccccc1C(=O)Nc1cccc(S(=O)(=O)C(F)(F)F)c1 = 89
• CC(C)c1noc(N2CCC(COc3ccc(-c4ccc(S(C)(=O)=O)cc4)nc3)CC2)n1 = 37

Which measured Population Mitochondria Different-Phenotype (%) value corresponds to CCc1ccc(OCc2ccccc2C(=O)Nc2ccc3nc(C)cc(N)c3c2)cc1.Cl ?
0

Any idea what its Population Mitochondria Different-Phenotype (%) is? The compound is Cl.O=C(O)c1cc(-c2ccc(C3CCNCC3)cc2)c2ccc(-c3ccc(C(F)(F)F)cc3)cc2c1
89

State the recorded Population Mitochondria Different-Phenotype (%) for this entry: C#Cc1cccc(Nc2ncnc3cc(OCCOC)c(OCCOC)cc23)c1
88

Look up Population Mitochondria Different-Phenotype (%): CC(C)(C)NC[C@H](O)COc1nsnc1N1CCOCC1
23

###

tested on: U2OS; test: Multiplex assay against U2OS; assay type: toxicity, cell-based; conditions: human, 12 h, 1 µM, compound concentration 1 uM, replicate 2
Label yes (1) when Population Fragmented Nuclei (%) is at or above 10%; otherwise label no (0).

Past entries and their recorded results:
* CCCSc1nc(N[C@@H]2C[C@H]2c2ccc(F)c(F)c2)c2nnn([C@@H]3C[C@H](OCCO)[C@@H](O)[C@H]3O)c2n1 [TICAGRELOR] | no (0)
* CC(C)c1noc(N2CCC(COc3ccc(-c4ccc(S(C)(=O)=O)cc4)nc3)CC2)n1 [GSK-1292263] | yes (1)
* CC(C)NC(=O)N1CC[C@H](NC2=Nc3cc(F)ccc3N(CC(F)F)c3ccc(Cl)cc32)C1 | no (0)

Is Population Fragmented Nuclei (%) for CC(C)(C)NC[C@H](O)COc1nsnc1N1CCOCC1 [TIMOLOL] at or above 10%?
no (0)

Evaluate COC(=O)C1=C(C)NC(C)=C(C(=O)OCCCN2CCC(c3ccccc3)(c3ccccc3)CC2)[C@H]1c1cccc([N+](=O)[O-])c1 [NIGULDIPINE] : Population Fragmented Nuclei (%) at minimum 10%?
no (0)

Identify whether the reported Population Fragmented Nuclei (%) of the following compound is 10% or greater: Cl.O=C(O)c1cc(-c2ccc(C3CCNCC3)cc2)c2ccc(-c3ccc(C(F)(F)F)cc3)cc2c1
yes (1)

Check if Population Fragmented Nuclei (%) >= 10% (inclusive). Item: CC(C)CC(=O)Nc1[nH]nc2c1CN(C(=O)C1CCN(C)CC1)C2(C)C [PHA-793887]
no (0)

Population Fragmented Nuclei (%) >= 10% for C=CC(=O)Nc1cccc(Sc2nc(Nc3ccc(N4CCN(C)CC4)cc3)ncc2Cl)c1 ?
yes (1)

Decide: Population Fragmented Nuclei (%) of COc1cc(Nc2nccc(-c3cnn4nc(OC)ccc34)n2)cc(C(F)(F)F)c1 >= 10%?
no (0)

Given the entry CN1CCN(Cc2ccc(Nc3ncc(Cl)c(Nc4ccccc4S(=O)(=O)N(C)C)n3)cc2)CC1 [DUBERMATINIB] , answer whether its Population Fragmented Nuclei (%) meets or surpasses 10%.
yes (1)

Is Population Fragmented Nuclei (%) at least 10%? Consider O=C(c1cc2c(cc1F)OC(c1ccc(F)cc1)(c1ccc(Cl)cc1Cl)O2)N1CCOCC1 (configuration not stated)
yes (1)

For this compound, is measured Population Fragmented Nuclei (%) 10% or higher? COc1ccccc1CN[C@H]1C2CCN(CC2)[C@H]1C(c1ccccc1)c1ccccc1 [CP-96345]
no (0)

Can Cc1cccc(CN2CCN(C(c3ccccc3)c3ccc(Cl)cc3)CC2)c1.Cl.Cl (configuration not stated) be said to have Population Fragmented Nuclei (%) at or above 10%?
yes (1)
